Tested on: A549
PROCEDURE_DETAILS: Cytotoxicity against human A549 cells assessed as cell viability measured after 48 hrs by MTT assay
Format: functional, cell-based
STUDY_CONDITIONS: A549, 48 h
ENDPOINT_NAME: pIC50
pIC50 here: minus log base 10 of the concentration, concentration in moles per litre.

[[record]]
compound = "NC(=O)C1CCCc2c1[nH]c1ccc(Cl)cc21 (stereo not given)"
endpoint_name = "pIC50"
reported_value = 4.54


# ---- query compound ----
Ask | Tell me its pIC50 given CC[C@@]1(O)C(=O)OCc2c1cc1n(c2=O)Cc2cc3ccccc3nc2-1 as the entry.
Reply | 5.81

====

ASSAY_TARGET: NAD-dependent protein deacetylase sirtuin-1 (Homo sapiens, UniProt Q96EB6)
Sequence (Q96EB6 whole entry, the tested form may be a part): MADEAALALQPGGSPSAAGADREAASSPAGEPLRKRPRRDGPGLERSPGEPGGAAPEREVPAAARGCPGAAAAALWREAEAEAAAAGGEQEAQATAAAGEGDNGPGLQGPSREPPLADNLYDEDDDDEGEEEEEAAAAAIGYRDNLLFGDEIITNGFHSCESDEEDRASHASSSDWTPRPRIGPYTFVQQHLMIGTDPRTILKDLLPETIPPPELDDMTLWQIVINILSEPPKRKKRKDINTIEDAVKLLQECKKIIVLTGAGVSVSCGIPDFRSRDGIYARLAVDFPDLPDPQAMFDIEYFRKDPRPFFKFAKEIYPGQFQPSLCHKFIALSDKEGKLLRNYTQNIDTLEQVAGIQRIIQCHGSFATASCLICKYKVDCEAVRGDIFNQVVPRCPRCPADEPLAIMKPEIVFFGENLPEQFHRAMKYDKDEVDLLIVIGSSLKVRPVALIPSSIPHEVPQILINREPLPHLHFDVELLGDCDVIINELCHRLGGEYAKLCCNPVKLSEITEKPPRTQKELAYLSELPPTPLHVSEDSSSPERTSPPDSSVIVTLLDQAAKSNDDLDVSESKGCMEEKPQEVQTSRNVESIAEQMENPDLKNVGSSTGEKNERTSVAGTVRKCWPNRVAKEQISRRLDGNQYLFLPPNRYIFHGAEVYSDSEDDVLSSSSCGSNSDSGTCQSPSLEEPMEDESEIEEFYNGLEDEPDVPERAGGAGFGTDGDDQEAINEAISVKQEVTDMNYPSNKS
PROCEDURE_DETAILS: Inhibition of recombinant human SIRT1 (193 to 741 residues) expressed in Escherichia coli expression system using RHKK(Ac)W-NH2 as substrate measured after 2 hrs by HPLC method
ENDPOINT_NAME: pIC50
Kindly note that pIC50 refers to -log10 of the concentration in mol/L and answer with the value alone.

[[record]]
entry_smiles = "NC(=O)Cc1cc2cc(Cl)ccc2[nH]1"
reported_value = 4.05


Ask | Give a short answer stating reported pIC50 for CCc1c(CC(N)=O)[nH]c2ccc(Cl)cc12 .
Reply | 4.85

====

ASSAY_TARGET: NAD-dependent protein deacetylase sirtuin-2 (Homo sapiens, UniProt Q8IXJ6)
Sequence (Q8IXJ6 whole entry): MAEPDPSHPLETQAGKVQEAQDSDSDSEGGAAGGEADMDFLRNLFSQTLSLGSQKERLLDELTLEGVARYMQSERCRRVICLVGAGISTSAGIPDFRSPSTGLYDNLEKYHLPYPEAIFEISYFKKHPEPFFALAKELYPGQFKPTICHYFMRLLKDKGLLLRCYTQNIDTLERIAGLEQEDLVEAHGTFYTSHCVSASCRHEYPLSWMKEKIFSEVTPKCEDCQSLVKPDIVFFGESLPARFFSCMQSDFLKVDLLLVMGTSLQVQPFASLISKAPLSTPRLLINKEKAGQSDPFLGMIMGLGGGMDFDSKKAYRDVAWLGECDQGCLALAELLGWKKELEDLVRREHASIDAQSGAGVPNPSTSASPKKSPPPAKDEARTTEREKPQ
PROCEDURE_DETAILS: Inhibition of recombinant human SIRT2 expressed in baculovirus infected SF9 cells expression system using RHKK(Ac)W-NH2 as substrate measured after 20 mins by HPLC method
ENDPOINT_NAME: pIC50
pIC50 here is simply -log10 of the concentration when that concentration is written in mol/L.

Ask | For the compound NC(=O)Cc1[nH]c2ccc(Cl)cc2c1Cc1ccccc1 , report pIC50.
Reply | 6.03

====

Test system: A549
PROCEDURE_DETAILS: Cytotoxicity against human A549 cells assessed as cell viability measured after 48 hrs by MTT assay
Type: functional, cell-based
STUDY_CONDITIONS: A549, 48 h
pIC50: −log10 of the molar value.
ENDPOINT_NAME: pIC50

Here's what some known entries look like.
[[record]]
entry_smiles = "NC(=O)Cc1[nH]c2ccc(Cl)cc2c1CC(N)=O"
endpoint_name = "pIC50"
reported_value = "< 4.00"

[[record]]
entry_smiles = "CCc1c(CC(N)=O)[nH]c2ccc(Cl)cc12"
endpoint_name = "pIC50"
reported_value = "< 4.00"


Now, please, on to the next molecule.
Ask | Fill in pIC50 for record NC(=O)Cc1cc2cc(Cl)ccc2[nH]1
Reply | < 4.00

Source of measurements: ChEMBL document CHEMBL4706521
